SH2 binding enrichment listing for selected sequences.
Measured Target: c-Src SH2
Test Method Notes: SH2 binding enrichment of the phosphorylated peptide, bacterial display (enrichment ratio); higher = better substrate or ligand; peptides without Tyr show the background
No unit in the answer, please; the number alone is enough.

State the recorded SH2 binding enrichment for this entry: IEENGYNTFAS [FGF10_Y161_YF]
1.45

State the recorded SH2 binding enrichment for this entry: RYLTRYIYNRE [HLA-DQB1_Y62_V59L]
0.627

State the recorded SH2 binding enrichment for this entry: SVVVLYEPPEV [TP53_Y220_P219L]
0.611

State the recorded SH2 binding enrichment for this entry: PVGDVYKKKGL [NMNAT1_Y55_A54V]
0.55

State the recorded SH2 binding enrichment for this entry: GTAPSYGNPSS [CD19_Y378]
0.45

State the recorded SH2 binding enrichment for this entry: RRIHSYRGYLW [VHL_Y112_H115Y]
0.53

State the recorded SH2 binding enrichment for this entry: PLGVPYLDKPP [JMJD7_Y31_A28G]
0.46

State the recorded SH2 binding enrichment for this entry: VDTGVYAVPPP [BCAR1_Y410_S407T]
0.556

State the recorded SH2 binding enrichment for this entry: VVPGSYDRLRV [IFT172_Y260_L257P]
0.818

State the recorded SH2 binding enrichment for this entry: RHPFFFAPELL [ALB_Y174_Y174F_YF]
1.05

---

phosphorylation enrichment listing for selected sequences.
Measured Target: EPHB2 (UniProt P29323)
Sequence (P29323 whole entry, looked up): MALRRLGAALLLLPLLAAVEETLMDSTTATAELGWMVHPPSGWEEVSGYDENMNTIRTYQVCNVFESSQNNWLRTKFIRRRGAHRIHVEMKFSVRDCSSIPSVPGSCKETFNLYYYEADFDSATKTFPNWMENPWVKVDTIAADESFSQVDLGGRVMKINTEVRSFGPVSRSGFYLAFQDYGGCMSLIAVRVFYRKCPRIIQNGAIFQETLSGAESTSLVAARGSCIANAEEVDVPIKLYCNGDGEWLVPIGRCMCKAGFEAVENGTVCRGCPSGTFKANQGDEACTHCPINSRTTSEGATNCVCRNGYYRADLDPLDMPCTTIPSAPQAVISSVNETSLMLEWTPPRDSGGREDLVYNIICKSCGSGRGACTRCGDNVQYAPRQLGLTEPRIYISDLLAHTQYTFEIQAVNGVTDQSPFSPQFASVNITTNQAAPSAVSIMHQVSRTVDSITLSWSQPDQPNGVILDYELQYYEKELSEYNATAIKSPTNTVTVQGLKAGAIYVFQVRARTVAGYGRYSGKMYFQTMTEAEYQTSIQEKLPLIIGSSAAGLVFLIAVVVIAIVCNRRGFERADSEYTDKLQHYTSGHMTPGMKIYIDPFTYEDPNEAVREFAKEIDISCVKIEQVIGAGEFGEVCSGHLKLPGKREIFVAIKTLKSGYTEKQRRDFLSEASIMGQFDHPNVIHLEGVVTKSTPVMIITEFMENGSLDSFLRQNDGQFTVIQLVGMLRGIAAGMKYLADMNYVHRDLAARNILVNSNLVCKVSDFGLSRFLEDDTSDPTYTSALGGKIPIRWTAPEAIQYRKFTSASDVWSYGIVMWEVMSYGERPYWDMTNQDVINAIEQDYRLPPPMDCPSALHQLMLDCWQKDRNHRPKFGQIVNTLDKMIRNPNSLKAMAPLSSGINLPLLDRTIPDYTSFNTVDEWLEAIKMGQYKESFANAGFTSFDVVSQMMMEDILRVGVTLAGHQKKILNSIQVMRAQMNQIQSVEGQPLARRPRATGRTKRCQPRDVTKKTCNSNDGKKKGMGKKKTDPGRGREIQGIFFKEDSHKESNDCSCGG
Test Method Notes: phosphorylation enrichment, bacterial display (enrichment ratio); higher = better substrate or ligand; peptides without Tyr show the background
No unit in the answer, please; the number alone is enough.

[
  {
    "Input Sequence": "SHKELYKWFTS [DYNC1H1_Y3051_E3048K]",
    "phosphorylation enrichment": 0.439
  },
  {
    "Input Sequence": "AKKKMYSHKTK [AGXT_Y231_R233H]",
    "phosphorylation enrichment": 0.823
  }
]

Request: phosphorylation enrichment, test system EPHB2 (UniProt P29323), entry KDHPDYKFQRR [SOX10_Y171_P175R_YF]
0.387

---

Measured Target: Grb2 SH2 (UniProt P62993)
Sequence (P62993 whole entry, looked up): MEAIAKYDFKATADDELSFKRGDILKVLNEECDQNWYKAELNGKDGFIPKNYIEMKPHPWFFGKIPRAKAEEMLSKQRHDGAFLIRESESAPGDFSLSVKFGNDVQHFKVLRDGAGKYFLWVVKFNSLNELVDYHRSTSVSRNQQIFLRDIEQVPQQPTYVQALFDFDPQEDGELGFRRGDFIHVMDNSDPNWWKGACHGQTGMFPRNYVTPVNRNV
Test Method Notes: SH2 binding enrichment of the phosphorylated peptide, bacterial display (enrichment ratio); higher = better substrate or ligand; peptides without Tyr show the background
Metric: SH2 binding enrichment

[
  {
    "Input Sequence": "GDFFCYLAEVA [YWHAG_Y133_R132C_YF]",
    "SH2 binding enrichment": 0.618
  },
  {
    "Input Sequence": "MKGDFYRSLAE [YWHAG_Y131_Y133S_YF]",
    "SH2 binding enrichment": 0.758
  },
  {
    "Input Sequence": "IDFARYWHGDD [MMP11_Y162]",
    "SH2 binding enrichment": 0.843
  }
]

State the recorded SH2 binding enrichment for this entry: LQEQNYLAVDS [FAM114A1_Y115]
0.725

State the recorded SH2 binding enrichment for this entry: PVGVLYEVKVF [PTS_Y128_K129E_YF]
0.992

---

Measured Target: MERTK (UniProt Q12866)
Sequence (Q12866 whole entry, looked up): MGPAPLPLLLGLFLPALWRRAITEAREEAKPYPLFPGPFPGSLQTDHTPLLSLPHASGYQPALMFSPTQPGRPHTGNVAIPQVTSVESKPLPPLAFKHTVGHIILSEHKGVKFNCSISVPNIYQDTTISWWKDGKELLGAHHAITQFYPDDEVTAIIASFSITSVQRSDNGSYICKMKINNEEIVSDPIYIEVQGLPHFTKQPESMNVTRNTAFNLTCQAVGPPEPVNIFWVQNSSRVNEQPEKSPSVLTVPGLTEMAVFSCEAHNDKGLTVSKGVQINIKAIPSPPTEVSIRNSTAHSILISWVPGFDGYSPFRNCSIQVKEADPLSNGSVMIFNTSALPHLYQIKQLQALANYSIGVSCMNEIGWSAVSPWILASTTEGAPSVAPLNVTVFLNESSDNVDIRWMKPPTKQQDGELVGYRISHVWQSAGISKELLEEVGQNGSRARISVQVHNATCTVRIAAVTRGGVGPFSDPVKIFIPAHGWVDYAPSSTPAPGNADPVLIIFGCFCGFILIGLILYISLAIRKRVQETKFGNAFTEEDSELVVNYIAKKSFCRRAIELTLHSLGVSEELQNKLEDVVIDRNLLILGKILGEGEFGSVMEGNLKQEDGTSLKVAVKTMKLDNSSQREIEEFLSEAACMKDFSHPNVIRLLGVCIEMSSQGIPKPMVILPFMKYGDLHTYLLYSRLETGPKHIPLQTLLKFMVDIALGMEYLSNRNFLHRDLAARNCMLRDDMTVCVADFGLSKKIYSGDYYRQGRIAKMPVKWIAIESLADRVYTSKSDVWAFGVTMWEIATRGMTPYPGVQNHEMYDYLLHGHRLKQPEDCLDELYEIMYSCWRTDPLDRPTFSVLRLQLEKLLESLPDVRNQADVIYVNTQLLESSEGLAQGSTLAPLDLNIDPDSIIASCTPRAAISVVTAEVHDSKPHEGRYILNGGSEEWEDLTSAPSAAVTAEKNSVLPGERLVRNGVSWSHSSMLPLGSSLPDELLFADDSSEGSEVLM
Test Method Notes: phosphorylation enrichment, bacterial display (enrichment ratio); higher = better substrate or ligand; peptides without Tyr show the background
Metric: phosphorylation enrichment
No unit in the answer, please; the number alone is enough.

[
  {
    "Input Sequence": "SSRKEYFIGGG [GYPC_Y126]",
    "phosphorylation enrichment": 0.309
  },
  {
    "Input Sequence": "SHSMRYFFTAV [HLA-C_Y31_D33F]",
    "phosphorylation enrichment": 0.525
  },
  {
    "Input Sequence": "DRLASYLDKMR [KRT17_Y98_V102M]",
    "phosphorylation enrichment": 0.45
  },
  {
    "Input Sequence": "LEAVSYSSPFA [RNLS_Y190_R193P_YF]",
    "phosphorylation enrichment": 0.658
  },
  {
    "Input Sequence": "GNLLIYTEFGK [HGD_Y166]",
    "phosphorylation enrichment": 4.24
  }
]

State the recorded phosphorylation enrichment for this entry: LAETSYVIVLE [MAGEA1_Y276_K278I]
0.616

State the recorded phosphorylation enrichment for this entry: RLLVIYPWTQR [HBG2_Y36_V35I]
0.58

State the recorded phosphorylation enrichment for this entry: GKMPQYLESMQ [CYB5R3_Y130_S128P]
0.473

State the recorded phosphorylation enrichment for this entry: EEHIPCTHMNG [INSR_Y1361_Y1361C]
0.552

State the recorded phosphorylation enrichment for this entry: LEEFQYIGESQ [MSH2_Y856]
0.61

State the recorded phosphorylation enrichment for this entry: KACKHYLTTRT [ZBTB5_Y118]
0.563

State the recorded phosphorylation enrichment for this entry: MSSHHCDYKKY [ZNF445_Y428_Y428C]
0.432

State the recorded phosphorylation enrichment for this entry: VCDALYPPGPP
0.282
